Assay: qHTS assay to identify small molecule agonists of the estrogen receptor beta (ER-beta) signaling pathway - cell viability counter screen (AID 1259380); further: nearly all actives have a fitted effect of over 30% in size
Details: ER-beta-bla HEK293T viability, CellTiter-Glo luminescence, 16 h; series mostly up to 92.4 µM
Inconclusive results are not listed. Activity calls are given as the source filed them. The call rests on the fitted dose curve; in most records, active means well fitted cell-killing curve with a large enough effect in the repeat runs; inconclusive means weak or mixed curves, or effect the other way; inactive means flat fitted curve, though single readings scatter.
Select the matching outcome among yes for active, no for inactive

Some entries whose results are on file:
CCCCCCCCCCCCCCCCCC[N+](C)(C)C ... yes
O=C(O)c1ccc(Cl)c(Cl)c1 ... no
CC(=O)N1CCN(c2ccc(OC[C@H]3CO[C@](Cn4ccnc4)(c4ccc(Cl)cc4Cl)O3)cc2)CC1 ... yes

So what was the verdict on C[C@H]1[C@H]2CC[C@H]3[C@@H]4CC=C5C[C@@H](N(C)C)CC[C@]5(C)[C@H]4CC[C@]23CN1C in this test?
no

Test call, this molecule: Oc1ccc(C2(c3ccc(O)cc3)CC3CC2C2CCCC32)cc1 (stereo not given)
yes

Outcome? CCCCCCCCCCCCCCCCCC[N+](C)(C)Cc1ccccc1
yes

Identify the outcome logged in this assay for the molecule shown: Cc1cccc(S(=O)(=O)O)c1C
no

What call does the record list for COC(=O)C1=C(C)NC(C)=C(C(=O)OCCc2ccc(N3CCN(C(c4ccccc4)c4ccccc4)CC3)cc2)C1c1cccc([N+](=O)[O-])c1 (stereo not given) ?
no

State the result this test recorded for CSc1ccc(C(=O)c2[nH]c(=O)[nH]c2C)cc1 .
no

Please indicate how the test categorized CCCCCCCCNC(C)C(O)c1ccc(SC(C)C)cc1 (stereo not given) .
yes
